target: mouse TMEM16A mutant P595A (Mus musculus, UniProt Q8BHY3, P595A); construct: expressed in transfected cells; host or cells: HEK293T; assay: Inside-out patch recording of 1PBC block, mutant P595A; assay type: cell-based; conditions: P595A; V -140 mV
Sequence (Q8BHY3 whole entry P595A): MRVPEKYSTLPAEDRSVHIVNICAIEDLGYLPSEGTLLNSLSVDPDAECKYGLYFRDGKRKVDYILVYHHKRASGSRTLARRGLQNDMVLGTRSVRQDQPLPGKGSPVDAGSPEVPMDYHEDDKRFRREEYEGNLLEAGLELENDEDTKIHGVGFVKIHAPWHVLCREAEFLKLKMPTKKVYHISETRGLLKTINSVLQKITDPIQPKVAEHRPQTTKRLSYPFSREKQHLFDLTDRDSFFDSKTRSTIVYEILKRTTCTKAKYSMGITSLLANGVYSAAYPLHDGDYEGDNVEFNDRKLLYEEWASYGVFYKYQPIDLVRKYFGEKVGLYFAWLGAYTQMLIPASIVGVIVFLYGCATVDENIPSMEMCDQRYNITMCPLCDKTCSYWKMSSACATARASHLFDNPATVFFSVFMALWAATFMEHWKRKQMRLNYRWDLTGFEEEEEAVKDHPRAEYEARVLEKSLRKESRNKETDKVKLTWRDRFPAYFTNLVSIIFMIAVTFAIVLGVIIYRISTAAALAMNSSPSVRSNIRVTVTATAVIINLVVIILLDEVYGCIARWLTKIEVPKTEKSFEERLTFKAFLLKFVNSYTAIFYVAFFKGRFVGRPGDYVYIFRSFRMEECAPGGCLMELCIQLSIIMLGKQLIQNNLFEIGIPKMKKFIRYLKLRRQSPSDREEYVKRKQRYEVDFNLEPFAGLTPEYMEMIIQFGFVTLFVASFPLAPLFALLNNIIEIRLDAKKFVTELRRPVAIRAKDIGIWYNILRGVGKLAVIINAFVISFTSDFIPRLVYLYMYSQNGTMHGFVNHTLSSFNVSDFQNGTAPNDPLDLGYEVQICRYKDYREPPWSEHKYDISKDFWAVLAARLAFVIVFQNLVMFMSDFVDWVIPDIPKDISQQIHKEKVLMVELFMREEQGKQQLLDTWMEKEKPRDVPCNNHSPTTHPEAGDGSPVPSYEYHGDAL
pIC50: −log10 of the molar value.
experimental_readout: pIC50

1) N#Cc1c(C(F)(F)F)cc(O)n2c1nc1ccccc12 4.98

###

biological target: mouse TMEM16A mutant V599A (Mus musculus, UniProt Q8BHY3, V599A); construct: expressed in transfected cells; host or cells: HEK293T; experiment: Inside-out patch recording of 1PBC block, mutant V599A; type: cell-based; conditions: -140 mV; 15 µM Ca2+
Sequence (Q8BHY3 whole entry V599A): as the sequence (Q8BHY3 whole entry P595A) above, with A595P, V599A counted along it
experimental_readout: IC50 (µM)

1) N#Cc1c(C(F)(F)F)cc(O)n2c1nc1ccccc12 119
